FYI, the data here is from ChEMBL document CHEMBL1201862.

Please respond with reported GI50 for every item in the list.
Tested on: PC-3
Test: NCI tumour cell line growth inhibition, 48 h
Active and inactive are the calls of the source. Rule as the data show it: active = GI50 up to about 1.1 µM and inactive = higher.

In the examples that follow, each entry is paired with its recorded GI50.
COC(=O)/C=C(/C=C1/C(C#N)=C(N)N(c2ccc(Cl)cc2)C1(C)/C(=C/C(=O)OC)C(=O)OC)C(=O)OC (stereo unspecified)    34.6 µM (inactive)
C=C(C(=O)OC)c1cc2ccccc2n1S(=O)(=O)c1ccccc1    1.96 µM (inactive)
CCSC1=N/C(=C\c2ccco2)C(Nc2ccc(C)cc2)=N1    > 100 µM (inactive)
COc1ccc(Nc2nn3c(=O)c4c(C)c(C)sc4nc3s2)cc1    36.1 µM (inactive)
O=C(CCc1ccc(O)c(O)c1)NCCc1cc(O)c(O)c(O)c1    > 100 µM (inactive)
CC(=O)NCC1(c2ccccc2)CCN(CC2COc3ccccc3O2)CC1 (stereo unspecified)    > 100 µM (inactive)
Fc1ccc2c(c1)nc1n2C(c2c(Cl)cccc2Cl)SC1 (stereo unspecified)    14.7 µM (inactive)
CN(C)c1c(C2CC(O)C(CO)O2)c(=O)c1=O (stereo unspecified)    > 100 µM (inactive)

// batch mode: one GI50 value per listed entry
1. CC(=O)N1C(Nc2cnc3ccccc3c2)CCN1c1ccccc1 (stereo unspecified)
2. COc1cccc(-c2cc(O)c3cc(C)cnc3n2)c1

["> 10 µM (inactive)", "0.0467 µM (active)"]

###

Test system: SK-MEL-28
Assay: NCI tumour cell line growth inhibition, 48 h
Activity calls are given as the source filed them. Cut-off read from the data, not from the text of the source: active = GI50 up to about 1.1 µM and inactive = higher.
ATTRIBUTE_MEASURED: GI50

CCCNC(/C=C/[Si](C)(C)C)CO.CCCNCC(O)/C=C/[Si](C)(C)C (stereo not given)    > 100 µM (inactive)

// batch mode: one GI50 value per listed entry
1. COc1ccc(-c2cc3c(c4cc(OC)ccc24)C(=O)OC3=O)cc1
2. O=C(c1ccccc1)c1nc2ccc(Cl)cc2c2c1Cc1ccccc1-2
3. COc1ccc2nc3cc(Cl)ccc3c(NCCC[N+](C)(C)CCCCCCCCCCCCCCCC[N+](C)(C)CCCNc3c4ccc(Cl)cc4nc4ccc(OC)cc34)c2c1

> 100 µM (inactive)
> 100 µM (inactive)
2.08 µM (inactive)

// batch mode: one GI50 value per listed entry
1. COC(=O)C1CC2(C)C=CC1N(C(=O)OCc1ccccc1)C2 (stereo not given)
2. Nc1ccc(-c2nc3ccccc3s2)cc1F
3. CC(C)N(C(=O)C12C3C4C1C1C2C3C41C(=O)C(C)(C)C)C(C)C (stereo not given)
4. N/C(=N\O)N/N=C\c1cc([N+](=O)[O-])cc([N+](=O)[O-])c1O
5. O=C1c2nc3n(c2C(=O)c2c1nc1n2CCC1)CCC3
6. COC(=O)c1c(C)cccc1C1CN=NC12Cc1ccccc1C2=O (stereo not given)

["> 100 µM (inactive)", "46.6 µM (inactive)", "> 100 µM (inactive)", "> 100 µM (inactive)", "13.3 µM (inactive)", "> 71.1 µM (inactive)"]

###

Tested on: HOP-92
Assay: NCI tumour cell line growth inhibition, 48 h
Activity calls are given as the source filed them. No stated cut-off is given here; in the data, active = GI50 up to about 1.1 µM and inactive = higher.
Please respond with reported GI50 for every item in the list.

// batch mode: one GI50 value per listed entry
1. CCOc1cc[n+]([C-](C#N)C#N)cc1
2. Cc1ccc2c(c1)-c1c(C#N)c(N)nc(-c3ccc(Cl)cc3)c1CCS2(=O)=O
3. CC(=O)N1CCn2c1nc1cc(Cl)ccc12

1. > 100 µM (inactive)
2. 44.5 µM (inactive)
3. 24.9 µM (inactive)

// batch mode: one GI50 value per listed entry
1. COc1ccc(/C=C2\N=C3Sc4c([nH]cnc4=O)N3C2=O)cc1
2. O=C(Cc1ccccc1)NNc1nc(NNC(=O)c2ccncc2)nc(Nc2ccccc2)n1
3. Nc1ccc(C(=O)N/C(=C\c2cccc([N+](=O)[O-])c2)c2nc3c4c(ccc3[nH]2)C(=O)c2ccccc2C4=O)cc1
4. COc1cc(/C=C2\C(=O)N(Cc3ccccc3)C(c3ccccc3)S2(=O)=O)cc(OC)c1OC (stereo unspecified)
5. N=C(N)NCCCC(Nc1c2ccccc2nc2ccccc12)C(=O)O (stereo unspecified)

1: > 100 µM (inactive); 2: > 10 µM (inactive); 3: 29.4 µM (inactive); 4: 50.2 µM (inactive); 5: > 100 µM (inactive)

// batch mode: one GI50 value per listed entry
1. CC1=NN(C(=O)CC(=O)Nc2ccccc2)C(=O)C1/N=N/c1ccc(S(N)(=O)=O)cc1 (stereo unspecified)
2. N#CC(c1ccc(Cl)cc1)c1cccc(C(C#N)c2ccc(Cl)cc2)n1 (stereo unspecified)
3. CN(C)CC1CN(C(=O)Nc2ccccc2)C(=N)O1 (stereo unspecified)
4. Cc1nc(O)c(O)c(CN2CCCCC2)n1
5. Cc1ccc(S(=O)(=O)c2c3nc4ccccc4nc3n3c2[nH]c2ccccc23)cc1

["> 100 µM (inactive)", "15.2 µM (inactive)", "> 100 µM (inactive)", "> 100 µM (inactive)", "> 100 µM (inactive)"]

###

System: HOP-92
Assay: NCI tumour cell line growth inhibition, 48 h
Active and inactive are the calls of the source. Rule as the data show it: active = GI50 up to about 1.1 µM and inactive = higher.
The reply should be one of these categories: active, inactive

COc1ccc(C2OC(=O)c3c2ccc2ccccc32)c(C)c1 (stereo not given)    inactive
C=C(C)[C@H]1CC(=O)/C(C)=C\CC/C(C)=C/CC[C@@]2(C)O[C@@H]2C1    inactive
COC(=O)Nc1nc2cc(NS(=O)(=O)c3ccc(F)cc3)ccc2[nH]1    inactive
Cc1c(OCc2ccccc2)c(=O)ccn1CCc1c[nH]c2ccccc12    inactive
CC1=C/C(=N\N(C)C)C(C(O)(C(F)(F)F)C(F)(F)F)C(C)(C)C1 (stereo not given)    active
COc1ccc(C=O)c(N(C)C(=O)C(C)(C)C)c1    inactive

Tell me the assay call for `ClCc1nnc2n1-c1ccc(Cl)cc1SC2` please.
inactive

Tell me the assay call for `Cc1cccc(Nc2nc(NNC(=O)Cc3ccccc3)nc(NNC(=O)c3ccncc3)n2)c1` please.
inactive

Tell me the assay call for `CN(C)CCCNC(=O)c1cc2/c(=C\c3ccc(N(C)C)cc3)c3ccccc3n2[n+]1C` please.
inactive

Tell me the assay call for `Cc1nn2c(=O)n(-c3cccc(-n4nnc5c(-c6ccccc6)c(C)nn5c4=O)c3C)nnc2c1-c1ccccc1` please.
inactive

Tell me the assay call for `O=C(O)CC(CC(=O)O)C(=O)O` please.
inactive

Tell me the assay call for `O=S(=O)(N/N=C/c1cccc(Cl)c1Cl)c1ccccc1` please.
inactive

Tell me the assay call for `O=C1c2c(Cl)c(Cl)c(Cl)c(Cl)c2C(=O)N1CCN(c1c(Cl)ssc1=O)c1c(Cl)ssc1=O` please.
inactive

Tell me the assay call for `COC(=O)c1c(C#N)[nH]c(-c2ccsc2)c1C(=O)OC` please.
inactive

Tell me the assay call for CC(=O)OCC(OC(C)=O)C1C[C@H]2O[C@@H]3[C@H](C[C@H]2O1)O[C@@]1(C[C@@H]3C)C[C@H](C)[C@@H]2O[C@]3(C[C@@H]2O1)C[C@H]1O[C@H]2[C@H](C)[C@H]4OC(=O)C[C@H]5CC[C@@H]6OC7[C@H]8O[C@]9(CC[C@H]%10CC(=O)[C@H](CC[C@H]%11C[C@@H](C)C(=O)C(C[C@@H]4O[C@H]2C[C@H]1O3)O%11)O%10)CC8O[C@@H]7[C@@H](O9)[C@H]6O5 (stereo not given in full) please.
active

Tell me the assay call for `CC(=O)/C(=C\I)c1ccccc1` please.
inactive

Tell me the assay call for `CC1=NN(C(=O)c2ccncc2)C(=O)C1` please.
inactive

Tell me the assay call for `CC[C@@]1(O)C(=O)OCc2c1cc1n(c2=O)Cc2c-1nc1ccccc1c2/C=N\NC(=O)C[n+]1ccccc1` please.
inactive

Tell me the assay call for CN(CCCCCl)P(=O)(OCC1=CC(=O)c2ccccc2C1=O)OC[C@H]1O[C@@H](n2cc(F)c(=O)[nH]c2=O)C[C@@H]1O (stereo not given in full) please.
active

Tell me the assay call for COc1cc(/C=C2\NC(=O)C(Cc3cc(OC)c(OC)c(C)c3OC)N(C(C)=O)C2=O)c(OC)c(C)c1OC (stereo not given) please.
inactive

###

System: SF-268
Assay: NCI tumour cell line growth inhibition, 48 h
The source made the active and inactive calls. No stated cut-off is given here; in the data, active = GI50 up to about 1.1 µM and inactive = higher.
ATTRIBUTE_MEASURED: GI50

In the examples that follow, each entry is paired with its recorded GI50.
O=C(CCc1ccc(O)c(O)c1)NCCc1cc(O)c(O)c(O)c1    41.1 µM (inactive)
O=C1Oc2ccc([N+](=O)[O-])cc2N/C1=C\C(=O)c1ccccc1    > 100 µM (inactive)
Cc1cccc(C(C)(C)C)c1NC(=O)C(=O)Cc1nc2ccccc2s1    > 100 µM (inactive)

// batch mode: one GI50 value per listed entry
1. Cc1cccc(Nc2nc3ccccc3nc2NS(=O)(=O)c2ccccc2)c1
2. Nc1ccc(-c2nc3ccccc3s2)cc1F
3. O=[N+]([O-])c1ccc(-[n+]2ccc3ccccc3c2)c([N+](=O)[O-])c1

1: 44.3 µM (inactive); 2: 34 µM (inactive); 3: 3.12 µM (inactive)
